# PROCEDURE SUMMARY: Evaluation of solubility in solvent
# Type: physicochemical
# PROTOCOL CONDITIONS: γ-butyrolactone, room temperature (25° C.), highest concentration completely dissolved
MEASURED ATTRIBUTE: Solubility Solvent-3 (wt %)

# MOLECULE, REPORTED MEASUREMENT
data = [
    ("Cc1cc(C)cc([S+](c2ccc3sc4ccccc4c(=O)c3c2)c2c(C)cc(Sc3ccc4sc5ccccc5c(=O)c4c3)cc2C)c1 (stereo not drawn) [Example 28]", 30),
    ("CC(C)(C)c1cccc([S+](c2ccc3sc4ccccc4c(=O)c3c2)c2ccc(Sc3ccc4sc5ccccc5c(=O)c4c3)cc2C(C)(C)C)c1 (stereo not drawn) [Example 22]", 38),
    ("Cc1cc([S+](c2ccc3sc4ccccc4c(=O)c3c2)c2cc(C(C)(C)C)ccc2C)c(C(C)(C)C)cc1Sc1ccc2sc3ccccc3c(=O)c2c1 (stereo not drawn) [Example 47]", 33),
]
